These measurements were taken from PubChem BioAssay (NCI).

Measured growth, listed per entry.
System: DU-145 prostate
Experiment: NCI-60 one-dose screen, 48 h (100 = growth as untreated, 0 = no growth, -100 = all killed)
Conditions: 10 µM unless noted
This is part of a sample that, as a whole, favours compounds with a hit. Of some 83,000 tested, about 20% had one in any assay.
experimental_readout: growth (%)

1. CN1CCN(CC(=O)Nc2ccc(-c3nc4ccccc4s3)cc2)CC1 85.2
2. CCCCCCCC(=O)SCC/C=C/[C@@H]1CC(=O)NCc2nc(co2)C2=N[C@@](C)(CS2)C(=O)N[C@@H](C(C)C)C(=O)O1 7.24
3. CC(C)NC[C@@H](C(=O)N1CCN(c2ncnc3c2[C@H](C)C[C@H]3O)CC1)c1ccc(Cl)cc1 67.8
4. O=C(Cc1ccc(/C=C/C(=O)c2ncc[nH]2)cc1)Nc1ccc(Br)cc1 19.9
5. CCCS(=O)(=O)Nc1ccc(F)c(C(=O)c2c[nH]c3ncc(-c4ccc(Cl)cc4)cc23)c1F 49.3
6. COc1cc(Nc2c(C#N)cnc3cc(OCCCN4CCN(C)CC4)c(OC)cc23)c(Cl)cc1Cl 46
7. CN(C[C@@H]1COCCO1)S(=O)(=O)Nc1ccc2ccc3ncc(-c4cnn(C)c4)cc3c(=O)c2c1 44
8. COc1cnc2c(c1)C(=O)c1c-2n(CCCN2CCOCC2)c(=O)c2cc(Cl)ccc12 17.8
9. CCN(CC)CCNC(=O)c1c(C)[nH]c(/C=C2\C(=O)Nc3ccc(F)cc32)c1C 33.2

* * *

growth: recorded values
Test system: RXF 393 renal
Assay: NCI-60 one-dose screen, 48 h (100 = growth as untreated, 0 = no growth, -100 = all killed)
Conditions: 10 µM unless noted
Experimental: Cells are grown in 96 well plates and exposed to the test compound for 48 hours. Compounds are tested at a single concentration, which is 10^-5 M for most compounds. The reported endpoint is percent growth (GI% or GIPRCNT), where numbers from 0 - 100% represent growth inhibition, and numbers from -100% - 0 represent cell death. For example, a value of 40 represents 60% growth inhibition. A value of 0 means no net growth occurred over the course of the experiment. […]
This is part of a sample that, as a whole, favours compounds with a hit. Of some 83,000 tested, about 20% had one in any assay.
experimental_readout: growth (%)

1. CC(C)c1cc(CNc2nc(Nc3cc(C4CC4)[nH]n3)cc(N3CCN(C)CC3)n2)on1 -54.1
2. N#Cc1c(-c2ccc(C(F)(F)F)cc2)cc(NCC2CCS(=O)(=O)CC2)n2c1nc1ccccc12 72.6
3. CCOc1cc2ncc(C#N)c(Nc3ccc(OCc4ccccn4)c(Cl)c3)c2cc1NC(=O)/C=C/CN(C)C -77.4
4. CN1[C@@H]2CC[C@H]1/C(=C\c1ccccc1)C1=C2[C@@H](c2ccccc2)C(C#N)=C(N)O1 63
5. CCN1CCN(c2nc(C)cc(N(CCNc3ccnc4cc(Cl)ccc34)Cc3ccc4c(c3)OCO4)n2)CC1 -54.6
6. COc1cc(F)c(F)c(Nc2ccc(I)cc2F)c1NS(=O)(=O)C1(C[C@H](O)CO)CC1 -2.17
7. COc1cnc2c(c1)C(=O)c1c-2n(CCCNC2=NCCS2)c(=O)c2cc(Cl)ccc12 39
8. CN1CCN(CCCOc2cccc3nc(Nc4ccc(Cl)c(C(F)(F)F)c4)ccc23)CC1 14.7
9. Cn1cnc(-c2cc3nccc(Oc4ccc(NC(=S)NC(=O)Cc5ccccc5)cc4F)c3s2)c1 87.1
10. C[C@@H](Oc1cc(C(=O)Nc2ccc(C(=O)N3CCN(C)CC3)cc2)nnc1N)c1c(Cl)ccc(F)c1Cl 62.6
11. CNC(=O)c1c(C)oc2cc(Oc3ncnc4cc(OC)c(OC)cc34)ccc12 66.4
12. Cn1ncc(Cl)c1-c1cc(C(=O)N[C@H](CN)Cc2ccc(F)c(F)c2)oc1Cl -52.6
13. Cc1nc(-c2cn3c(n2)-c2ccc(-c4cnn(C(C)(C)C(N)=O)c4)cc2OCC3)n(C(C)C)n1 -28.1
14. CNC(=O)c1cc(COc2nnc(Nc3ccc(Cl)cc3)c3ccoc23)ccn1 43.1
15. O=C(c1ccc(/C=C/c2n[nH]c3ccccc23)cc1)N1CCNCC1 -15.4
16. CCN1CCN(Cc2ccc(Cc3ncc(F)c(-c4cc(F)c5nc(C)n(C(C)C)c5c4)n3)nc2)CC1 -28.2
17. O=C(Cn1cncn1)Nc1ccc(-c2nc3ccccc3s2)cc1 125
18. COc1ccc(-n2c(=O)c3ccccc3n(Cc3ccc(C(=O)NO)cc3)c2=O)cc1 -41.6
19. CN1CC[C@H](c2c(O)cc(O)c3c(=O)cc(-c4ccccc4Cl)oc23)[C@H](O)C1 -65.5

* * *

Tested on: BT-549 breast
Assay: NCI-60 one-dose screen, 48 h (100 = growth as untreated, 0 = no growth, -100 = all killed)
Conditions: 10 µM unless noted
Compounds without any hit were thinned out: in the full panel of roughly 83,000, 20% have a hit.
Parameter class (string): assigned from measured growth. Ranges: low end = under 50%, middle = from 50% up to 90%, high end = 90% and over

compound	class_assignment
O=C(CNc1nc(-c2ccc(Cl)cc2)cs1)Nc1ccc(-c2nc3ccccc3s2)cc1	high end
O=C(Cn1ccnc1)Nc1ccc(-c2nc3ccccc3s2)cc1	middle
COc1cc(OC)c(C(=O)/C=C/c2cc3c(cc2OCc2ccccc2)OC(C)(C)CC3)cc1CC=C(C)C	low end
CCN(CC)CCCC(C)Nc1cc(-c2ccc(C(F)(F)F)cc2)c(C#N)c2nc3ccccc3n12 (centres undefined)	low end
Cc1ccc(F)c(NC(=O)Nc2ccc(-c3cccc4[nH]nc(N)c34)cc2)c1	low end
Cc1cccc(C)c1N1C(c2ccccc2)=NNC12C=CC(=O)c1c(O)cccc12 (centres undefined)	low end
Nc1nc(=S)c2ncn(C3OC(COC(=O)c4ccc(Cl)cc4)C(OC(=O)c4ccc(Cl)cc4)C3OC(=O)c3ccc(Cl)cc3)c2[nH]1 (centres undefined)	high end
COc1cc(-c2nc(C(=O)NCC(=O)O)nn2-c2ccc(Cl)cc2)cc(OC)c1OC	high end
COc1ccc2c(CCC(c3ccccc3)c3ccccc3)c3[n+](cc2c1OC)CCc1cc2c(cc1-3)OCO2	low end
COc1cc(NCCCN)c2ncccc2c1	middle
N#Cc1c(C(F)(F)F)cc(Nc2ccc3nc(NCCN4CCCC4)oc3c2)n2c1nc1ccccc12	middle
Cc1cc(O)c2c(c1)C1OC(=O)CCCCCN1C1=C2C(=O)c2cccc(OC3CC(O)C(O)C(C)O3)c2C1=O (centres undefined)	middle
Cn1c(Nc2ccc(C(F)(F)F)cc2)nc2cc(Oc3ccnc(-c4ncc(C(F)(F)F)[nH]4)c3)ccc21	low end
CCOC(=O)C1=C(C)N=C2Sc3cccc(OC)c3N2[C@H]1c1ccccn1	high end
CC/C(=C(\c1ccc(OCCN2CCCCCCC2)cc1)c1ccc(OC(=O)C2CCCCC2)cc1)c1ccc(Cl)cc1	high end
CNC(=O)c1cc(Oc2cccc3nc(Nc4ccc(Oc5ccccc5)cc4)ccc23)ccn1	middle

* * *

Item-by-item account of growth
Tested on: SK-MEL-5 melanoma
Assay: NCI-60 one-dose screen, 48 h (100 = growth as untreated, 0 = no growth, -100 = all killed)
Conditions: 10 µM unless noted
Compounds without any hit were thinned out: in the full panel of roughly 83,000, 20% have a hit.
experimental_readout: growth (%)

1) CC(C)(C)c1cnc(CSc2cnc(NC(=O)C3CCNCC3)s2)o1 -47.2
2) O=c1[nH]c([C@@H]2CCCN2)nc2c1oc1ccc(Cl)cc12 51.2
3) N#CC[C@H](C1CCCC1)n1cc(-c2ncnc3[nH]ccc23)cn1 84.8
4) Cc1cccc(Cl)c1NC(=O)c1cnc(Nc2cc(N3CCOCC3)cc(N3CCOCC3)c2)s1 65.1
5) CSc1nc2ncncc2[nH]1 101
6) C=CC(=O)Nc1cc2c(Nc3ccc(F)c(Cl)c3)ncnc2cc1OCCCN1CCOCC1 48.7

* * *

# key: entry, value: growth
System: MALME-3M melanoma
Assay: NCI-60 one-dose screen, 48 h (100 = growth as untreated, 0 = no growth, -100 = all killed)
Details: 10 µM unless noted
This is part of a sample that, as a whole, favours compounds with a hit. Of some 83,000 tested, about 20% had one in any assay. Active and inactive are the calls of the source. Rule for the calls: active = growth percent below 10; inactive = the rest.

molecule	measured_target	growth
Cc1nn(-c2ccccc2)c2c1N=c1s/c(=C\c3cn(-c4ccccc4)nc3-c3ccc(Cl)cc3)c(=O)n1C(C)N2 (centres undefined)	MALME-3M melanoma	124% (inactive)
C=CCC(=O)N[C@H](/C=C/C(=O)O)Cc1ccc(-c2cc(Cl)cc(Cl)c2)cc1	MALME-3M melanoma	99.9% (inactive)
Oc1ccc(C(c2ccc(O)cc2)C(Cl)(Cl)Cl)cc1	MALME-3M melanoma	134% (inactive)
COc1cc(OC)c(/C=C/S(=O)(=O)Cc2ccc(OC)c(NCC(=O)O)c2)c(OC)c1	MALME-3M melanoma	54.6% (inactive)
COc1cc2c(Oc3ccc4[nH]c(C)cc4c3F)ncnc2cc1OCCCN1CCCC1	MALME-3M melanoma	101% (inactive)
COc1cc(C2CC(c3ccc(Cl)cc3)=NN2c2ccc(Cl)cc2)cc(OC)c1OC (centres undefined)	MALME-3M melanoma	92% (inactive)
Nc1c(Cl)cccc1[N+](=O)[O-]	MALME-3M melanoma	96.7% (inactive)
C=CC[n+]1c(/C=C2\Sc3ccccc3N2C)sc(-c2ccccc2)c1-c1ccccc1	MALME-3M melanoma	4.72% (active)
O=C(NOC[C@H](O)CO)c1ccc(F)c(F)c1Nc1ccc(I)cc1F	MALME-3M melanoma	-11.7% (active)
O=C(Nc1ccc(C2=NCCCN2)cc1)c1ccc(C(=O)Nc2ccc(C3=NCCCN3)cc2)nc1	MALME-3M melanoma	117% (inactive)
CN1C/C=C\CCOc2cccc(c2)-c2ccnc(n2)Nc2cccc(c2)C1	MALME-3M melanoma	-79.4% (active)
Clc1ccc2c(NCCCNCc3ccc4c(c3)OCO4)ccnc2c1	MALME-3M melanoma	-69.6% (active)
COc1ccc2c(CCc3ccc(Cl)cc3)c3[n+](cc2c1OC)CCc1cc2c(cc1-3)OCO2	MALME-3M melanoma	55.5% (inactive)
C=CCCCC(=O)CCC(=O)OCC1O[C@@H](O[C@@H]2C(O)[C@@H](OC(C)=O)C(C)O[C@H]2O[C@H](CC=C)CCCCC)C(O)[C@@H](OC(=O)/C(C)=C/C)[C@@H]1OC(=O)/C=C/c1ccccc1 (some centres undefined)	MALME-3M melanoma	17.7% (inactive)
O=C(Nc1cccc([N+](=O)[O-])c1)c1ccc(Cl)c(Cl)c1	MALME-3M melanoma	30.2% (inactive)
CN(C)C1CCN(C(=O)c2ccc(NC(=O)Nc3ccc(-c4nc(N5CCOCC5)nc(N5CCOCC5)n4)cc3)cc2)CC1	MALME-3M melanoma	-34.1% [2.5 µM] (active)
C=CC(=O)N1CCC[C@H](n2c(=O)n(-c3ccc(Oc4ccccc4)cc3)c3c(N)ncnc32)C1	MALME-3M melanoma	98.2% (inactive)
CNC(=O)c1cnc(C)nc1-c1cc(C(C)(C)C)c(O)c(C(C)(C)C)c1	MALME-3M melanoma	87.5% (inactive)
CNC(=O)c1cc(Oc2ccc(NC(=O)Nc3cc(C(C)(C)C)nn3-c3ccc4ncccc4c3)c(F)c2)ccn1	MALME-3M melanoma	-59.5% (active)
